# System: E. coli
# EXPERIMENT DESCRIPTION: Antimicrobial activity test with Compounds 1 to 4
# Assay type: cell-based
# PROTOCOL CONDITIONS: 15 ppm in standard agar medium

{"columns": ["MOLECULE", "ASSAY TARGET", "Number of Bacteria, E. coli"],
 "data": [
  ["CC(C)=CCC/C(C)=C/Cc1cc([C@@H]2CC(=O)c3c(O)cc(O)cc3O2)cc(O)c1O [Compound 2]", "E. coli", ">3000 CFU/petri dish"],
  ["CC(C)=CCC/C(C)=C/Cc1c([C@@H]2CC(=O)c3c(cc(O)c(CC=C(C)C)c3O)O2)ccc(O)c1O [Compound 4]", "E. coli", "9 CFU/petri dish"],
  ["CC(C)=CCC/C(C)=C/Cc1c([C@@H]2CC(=O)c3c(O)cc(O)cc3O2)ccc(O)c1O [Compound 1]", "E. coli", ">3000 CFU/petri dish"],
  ["CC(C)=CCC/C(C)=C/Cc1c(O)cc2c(c1O)C(=O)C[C@@H](c1ccc(O)c(O)c1)O2 [Compound 3]", "E. coli", "0 CFU/petri dish"]
]}

###

# Tested on: breast cancer cells (MCF-7)
# EXPERIMENT DESCRIPTION: Breast cancer cell proliferation-inhibition test
# Format: cell-based
# PROTOCOL CONDITIONS: 0.2 μM sample, 0.1 nM estradiol, on 0-day incubation; Control 1 at 0 day = 1; mean ± SD of eight wells
Listed next: entries and their corresponding Relative Value of Living Cells.

{"columns": ["COMPOUND", "Relative Value of Living Cells"],
 "data": [
  ["CC(C)=CCC/C(C)=C/Cc1c([C@@H]2CC(=O)c3c(cc(O)c(CC=C(C)C)c3O)O2)ccc(O)c1O", "0.99 ± 0.04"],
  ["CC(C)=CCC/C(C)=C/Cc1cc([C@@H]2CC(=O)c3c(O)cc(O)cc3O2)cc(O)c1O", "0.95 ± 0.04"],
  ["O=C1C[C@@H](c2ccc(O)c(O)c2)Oc2cc(O)cc(O)c21 [Eriodictyol, eriodictyol, reference compound]", "0.96 ± 0.04"],
  ["CC(C)=CCC/C(C)=C/Cc1c(O)cc2c(c1O)C(=O)C[C@@H](c1ccc(O)c(O)c1)O2", "0.99 ± 0.05"],
  ["CC(C)=CCC/C(C)=C/Cc1c([C@@H]2CC(=O)c3c(O)cc(O)cc3O2)ccc(O)c1O", "0.98 ± 0.04"]
]}

###

# Test system: breast cancer cells (MCF-7)
# EXPERIMENT DESCRIPTION: Breast cancer cell proliferation-inhibition test
# Format: cell-based
# PROTOCOL CONDITIONS: 2 μM sample, 0.1 nM estradiol, after 3-days incubation; Control 1 at 0 day = 1
Listed next: entries and their corresponding Relative Value of Living Cells.
MEASURE NAME: Relative Value of Living Cells

{"columns": ["MOLECULE", "ASSAY TARGET", "RESULT"],
 "data": [
  ["CC(C)=CCC/C(C)=C/Cc1c(O)cc2c(c1O)C(=O)C[C@@H](c1ccc(O)c(O)c1)O2 [Compound 3]", "breast cancer cells (MCF-7)", "2.53 ± 0.30"],
  ["CC(C)=CCC/C(C)=C/Cc1c([C@@H]2CC(=O)c3c(cc(O)c(CC=C(C)C)c3O)O2)ccc(O)c1O [Compound 4]", "breast cancer cells (MCF-7)", "3.03 ± 0.30"],
  ["CC(C)=CCC/C(C)=C/Cc1cc([C@@H]2CC(=O)c3c(O)cc(O)cc3O2)cc(O)c1O [Compound 2]", "breast cancer cells (MCF-7)", "2.68 ± 0.19"],
  ["O=C1C[C@@H](c2ccc(O)c(O)c2)Oc2cc(O)cc(O)c21 [Eriodictyol, eriodictyol, reference compound]", "breast cancer cells (MCF-7)", "2.90 ± 0.13"],
  ["CC(C)=CCC/C(C)=C/Cc1c([C@@H]2CC(=O)c3c(O)cc(O)cc3O2)ccc(O)c1O [Compound 1]", "breast cancer cells (MCF-7)", "2.58 ± 0.11"]
]}
